These data points were gathered from the NIST ThermoML archive (doi:10.1021/je0498356).

Stated conditions: Liquid
Quantity kind: Critical temperature (K)

{"columns": ["Mol", "Quantity kind", "Measured number"],
 "data": [
  ["O=C(O)CCCCCCCC(=O)O", "Critical temperature", 844],
  ["O=C(O)CCCCCC(=O)O", "Critical temperature", 842],
  ["O=C(O)CCCCC(=O)O", "Critical temperature", 841],
  ["O=C(O)CCCC(=O)O", "Critical temperature", 840],
  ["O=C(O)CCC(=O)O", "Critical temperature", 851],
  ["O=C(O)CCCCCCCCCCC(=O)O", "Critical temperature", 859],
  ["O=C(O)CCCCCCCCC(=O)O", "Critical temperature", 845],
  ["O=C(O)CCCCCCC(=O)O", "Critical temperature", 843],
  ["O=C(O)CCCCCCCCCCCCC(=O)O", "Critical temperature", 862]
]}

###

Stated conditions: Liquid
Quantity kind: Critical pressure (kPa)

{"columns": ["Compound", "Measured number"],
 "data": [
  ["O=C(O)CCCCCC(=O)O [1,7-heptanedioic acid]", 3280],
  ["O=C(O)CCCCCCCC(=O)O [1,9-nonanedioic acid]", 2720],
  ["O=C(O)CCCCC(=O)O [1,6-hexanedioic acid]", 3850],
  ["O=C(O)CCCCCCCCCCC(=O)O [1,12-dodecanedioic acid]", 2150],
  ["O=C(O)CCCCCCCCC(=O)O [1,10-decanedioic acid]", 2500]
]}

1: O=C(O)CCC(=O)O [butanedioic acid]
2: O=C(O)CCCCCCC(=O)O [1,8-octanedioic acid]
3: O=C(O)CCCC(=O)O [1,5-pentanedioic acid]
4: O=C(O)CCCCCCCCCCCCC(=O)O [1,12-dodecanedicarboxylic acid]
Problem: Order the records by Critical pressure, with each subsequent value no larger than the one before. Labels, ranked as asked.
Result: 1, 3, 2, 4
(1: 6590 kPa, 3: 4270 kPa, 2: 2970 kPa, 4: 1900 kPa)
